- MEASURED ON: full-length beta-Catenin (Uniprot ID P35222) (Homo sapiens)
- Construct: 10 nM full-length beta-Catenin (Uniprot ID P35222)
- Sequence (P35222 1-781): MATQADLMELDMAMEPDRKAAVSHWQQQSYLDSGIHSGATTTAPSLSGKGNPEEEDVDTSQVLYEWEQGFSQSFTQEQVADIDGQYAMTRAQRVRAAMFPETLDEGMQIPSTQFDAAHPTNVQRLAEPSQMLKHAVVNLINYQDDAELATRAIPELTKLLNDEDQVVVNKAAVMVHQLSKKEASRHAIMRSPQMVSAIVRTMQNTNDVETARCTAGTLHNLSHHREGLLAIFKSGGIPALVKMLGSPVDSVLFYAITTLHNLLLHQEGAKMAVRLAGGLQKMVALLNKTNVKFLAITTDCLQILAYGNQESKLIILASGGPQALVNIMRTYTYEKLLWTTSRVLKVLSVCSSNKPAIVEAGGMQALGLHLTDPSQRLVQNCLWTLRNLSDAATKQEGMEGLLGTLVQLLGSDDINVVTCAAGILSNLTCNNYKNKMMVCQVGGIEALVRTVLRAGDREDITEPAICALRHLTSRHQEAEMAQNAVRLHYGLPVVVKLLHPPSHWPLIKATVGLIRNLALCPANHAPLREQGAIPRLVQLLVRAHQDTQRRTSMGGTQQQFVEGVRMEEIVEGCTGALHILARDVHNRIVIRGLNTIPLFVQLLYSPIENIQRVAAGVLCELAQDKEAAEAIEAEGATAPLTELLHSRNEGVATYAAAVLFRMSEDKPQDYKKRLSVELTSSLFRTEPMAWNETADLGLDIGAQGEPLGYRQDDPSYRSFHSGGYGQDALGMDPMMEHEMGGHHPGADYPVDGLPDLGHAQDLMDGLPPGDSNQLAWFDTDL
- EXPERIMENT NOTES: Fluorescence polarization IC50 (beta-catenin / 5FAM-TCF4 10-53 competition)
- Format: binding
- STUDY CONDITIONS: fluorescence polarization; read-out: beta-Catenin FP IC50
ATTRIBUTE MEASURED: IC50 (nM)
Provide the reading as a plain figure in nM.

compound CC(=O)N1CCC[C@]12CC=CCCCC1(CCCC=CCCCOC(=O)N3CC[C@@](C(=O)N[C@@H](Cc4ccsc4)C(=O)N[C@@H](Cc4csc5ccccc45)C(=O)N[C@@H](CCC(N)=O)C(N)=O)(C3)NC(=O)[C@H](CC(C)C)NC(=O)[C@H](Cc3cccc(C(=O)O)c3)NC(=O)[C@H](C)NC(=O)[C@H](C)NC(=O)[C@H](Cc3c[nH]c4ccccc34)NC(=O)[C@H](CC(=O)O)NC1=O)NC(=O)[C@H](CC(C)(C)C)NC(=O)[C@H](CC(=O)O)NC2=O (some centres unmarked) , IC50 observed: 105

compound CCCC[C@@H]1NC(=O)[C@H](CC(=O)O)NC(=O)[C@]2(CC=CCCCC3(CCCC=CCCCOC(=O)N4CC[C@@](C(=O)N[C@@H](Cc5ccccc5Cl)C(=O)N[C@@H](Cc5csc6ccccc56)C(=O)N[C@@H](CC(C)C)C(N)=O)(C4)NC(=O)[C@H](CC(C)C)NC(=O)[C@H](Cc4ccccc4)NC(=O)[C@H](C)NC(=O)[C@H](C)NC(=O)[C@H](CC(=O)O)NC(=O)[C@H](CC(=O)O)NC3=O)NC1=O)CCCN2C(C)=O (some centres unmarked) [I-1421] , IC50 observed: 134

compound CC(=O)N1CCC[C@]12CC=CCCCC1(CCCC=CCCCCCC[C@@](C)(C(=O)N[C@@H](Cc3ccccc3)C(=O)N[C@@H](Cc3csc4ccccc34)C(=O)N[C@@H](Cc3c[nH]cn3)C(N)=O)NC(=O)[C@H](CC(N)=O)NC(=O)[C@H](Cc3ccccc3)NC(=O)[C@H](C)NC(=O)[C@H](C)NC(=O)[C@H](CC(=O)O)NC(=O)[C@H](CC(=O)O)NC1=O)NC(=O)[C@H](CCC(C)C)NC(=O)[C@H](CC(=O)O)NC2=O (some centres unmarked) [I-584] , IC50 observed: 33

***
compound CCCC[C@@H]1NC(=O)[C@H](Cc2cccc(C(=O)O)c2)NC(=O)[C@H](CC(=O)O)NC(=O)C2(CCCC=CCCCOC(=O)N3CC[C@@](C(=O)N[C@@H](Cc4ccsc4)C(=O)N[C@@H](Cc4csc5ccccc45)C(=O)N[C@@H](Cc4ccccc4)C(N)=O)(C3)NC(=O)[C@H](CC(C)C)NC(=O)[C@H](Cc3ccccc3)NC(=O)[C@H](C)NC1=O)CCCC=CC[C@]1(CCCN1C(C)=O)C(=O)N[C@@H](CC(=O)O)C(=O)N[C@@H](CC(C)(C)C)C(=O)N2 (some centres unmarked) , IC50 observed: 119

compound CC(=O)N1CCC[C@]12CC=CCCCC1(CCCC=CCCCOC(=O)N3CC[C@@](C(=O)N[C@@H](Cc4ccccc4Cl)C(=O)N[C@@H](Cc4csc5ccccc45)C(N)=O)(C3)NC(=O)[C@H](CC(C)C)NC(=O)[C@H](Cc3ccccc3)NC(=O)[C@H](C)NC(=O)[C@H](C)NC(=O)[C@H](Cc3cccc(C(=O)O)c3)NC(=O)[C@H](CC(=O)O)NC1=O)NC(=O)[C@H](CC(C)(C)C)NC(=O)[C@H](CC(=O)O)NC2=O (some centres unmarked) , IC50 observed: 48
